Where do the numbers come from? From patent US12091561B2.

Description: The solubility is measured as described below. A predetermined amount of a compound is mixed with 100 g of water in an environment at 25° C. and is then stirred for 30 minutes. […] As described above, when a predetermined amount of the compound is mixed with 100 g of water, the maximum predetermined amount which is judged to be dissolved is used as the solubility.
Outcome Measure: SOLUBILITY [g/100 g OF WATER]

>>> print(df.to_string())
             compound                outcome_measure              obs_value
0         O=C1CCCCCN1  SOLUBILITY [g/100 g OF WATER]  >100 g/100 g OF WATER
1    CC(C)(O)C(C)(C)O  SOLUBILITY [g/100 g OF WATER]                      ∞
2         CC(C)(CO)CO  SOLUBILITY [g/100 g OF WATER]    80 g/100 g OF WATER
3  CC(C)(O)CCC(C)(C)O  SOLUBILITY [g/100 g OF WATER]    14 g/100 g OF WATER

Recorded SOLUBILITY [g/100 g OF WATER] (compound OC1CCCCC1O (stereo not drawn) ): >100 g/100 g OF WATER

Recorded SOLUBILITY [g/100 g OF WATER] (compound CC(O)CO (stereo not drawn) ): ∞
